Cited source: PubChem BioAssay (NCI)

# Tested on: MOLT-4 leukemia
# assay details: NCI tumour cell line growth inhibition, 48 h
For each record, write down the corresponding TGI.
Note: unit µM is implicit; provide only the numeric part.

I'd like to know its TGI. The compound in question is COC(=O)c1ccc2[nH]c(O)c(C(=Nc3ccc(N(C)C(=O)CN4CCN(C)CC4)cc3)c3ccccc3)c2c1 4.56

What value of measured TGI is listed for O=C(N/N=C/c1ccc(F)cc1)c1ccc(C(F)(F)F)nc1Nc1cccc(C(F)(F)F)c1 ? 5.5

Request the reported TGI associated with CNCc1ccc(-c2[nH]c3cc(F)cc4c3c2CCNC4=O)cc1 68

###

# Tested on: NCI-H226 lung
# assay details: NCI tumour cell line growth inhibition, 48 h
observed property: TGI

Dear colleague, I am looking for the recorded TGI of the following molecule: COc1c(O)c2c3c(c1OC)-c1ccccc1CC3N(S(=O)(=O)c1ccc(C)cc1)CC2 (stereo not drawn) > 50 µM

Please look up its TGI: C=CCN1C(=O)CC(=O)N(NC2=NNC3(C(=O)N2)c2ccccc2-c2ccccc23)C1=S 82.5 µM

If you can, please state the reported TGI value of CC(C)[C@@H]1NC(=O)[C@@H]2N=C(O[C@H]2C)[C@H](C(C)C)NC(=O)C2N=C1O[C@H]2C . > 100 µM

Which TGI is listed for c1ccc(-c2c(-c3[nH]c4ccccc4c3-c3ccccc3)[nH]c3ccccc23)cc1 ? 25.6 µM

Fill blank: measured TGI of the molecule CC[C@@]1(O)C(=O)OCc2c1cc1n(c2=O)Cc2c-1nc1ccccc1c2C=Nc1ccccc1N[C@@H]1c2cc3c(cc2[C@@H](c2cc(OC)c(O)c(OC)c2)[C@H]2C(=O)OC[C@@H]21)OCO3 is ____. 3.05 µM

For N#Cc1c(N)nc(Sc2ccccc2N)c(C#N)c1-c1ccccc1 , what is its reported TGI? > 100 µM

Would you mind telling me what TGI value was observed for Cn1c(=O)c2c(nc(N/N=C3/SCC(=O)N3Cc3ccccc3)n2C)n(C)c1=O ? > 100 µM

Entry Fc1ccc(-c2nn3c(COc4ccc(Cl)cc4)nnc3s2)cc1Oc1ccccc1 has what TGI? 84.4 µM

Suppose we examine the molecule COc1ccc(OC)c2c(=O)c3ccccc3[nH]c12 ; what TGI value has been reported? 94.1 µM

Data request, read-out TGI, for O=C1CCS/C(=N/S(=O)(=O)c2ccc(N3N=C4c5ccccc5CC4C3c3cccs3)cc2)N1Cc1ccccc1 (stereo not drawn) 59.3 µM

Entry CC(CC=O)Nc1nn2c(=O)c3ccccc3nc2s1 (stereo not drawn) has what TGI? > 100 µM

Form field: reported TGI of CN(C)c1ccc(O[Si](Oc2ccc(N(C)C)cc2)(Oc2ccc(N(C)C)cc2)Oc2ccc(N(C)C)cc2)cc1 > 100 µM

Which measured TGI value corresponds to COc1cc(/C=C\c2cc(OC)c(OC)c(OC)c2)cc(NS(=O)(=O)c2ccc(Cl)cc2)c1OC ? > 100 µM

I would be grateful if you could share the reported TGI for COC1OC(C(=O)O)C2OC(C)(C)OC12 (stereo not drawn) . > 100 µM

Reported TGI, molecule NC(N)=NCCCC(NC(=O)c1c2ccccc2nc2ccccc12)C(=O)O (stereo not drawn) : ____ > 100 µM

Can you look up the measured TGI of O=c1cccccc1[O-].O=c1cccccc1[O-].O=c1cccccc1[O-].[Sm+3] for me? > 100 µM

Look up TGI: COc1cc2c(cc1OC)C(=O)/C(=C/c1ccc(N(C)C)cc1)CC2 > 10 µM

# TGI lookup, item CC(=O)N1c2cc(N=NN(C)C)ccc2NC(=O)CC1C (stereo not drawn) > 100 µM

Data request, read-out TGI, for CCSc1ncc(Br)c(Sc2nc(N)nc3nc[nH]c23)n1 > 100 µM

Dear colleague, I am looking for the recorded TGI of the following molecule: Cc1ccc2nc(C(=O)O)c(=O)[nH]c2c1 > 100 µM

Item CN(C)c1ccc(N=C2C=CC(=C(C#N)C#N)c3ccccc32)cc1 has what recorded TGI? 0.741 µM

// returns reported TGI for input [Cl-].[Gd+3].[O-]/N=C(\c1ccccc1)c1ccccn1.[O-]/N=C(\c1ccccc1)c1ccccn1.[O-]/N=C(\c1ccccc1)c1ccccn1 > 100 µM

Reported TGI, molecule C#Cc1cccc(NC(=O)C2CCCN(C(=O)CCl)C2)c1 (stereo not drawn) : ____ > 82.5 µM

Suppose we examine the molecule COc1ccc(Cc2nc3cc(OC)c(OC)cc3c(=O)[nH]2)cc1 ; what TGI value has been reported? > 100 µM

Given COc1ccc(/C(C)=C(\c2ccc(Cl)cc2)c2ccc(OCCN3CCCCCC3)cc2)cc1F , state its recorded TGI. > 16.7 µM

For the molecule O=C(/C=C(\[O-])c1ccccc1)CCCCCCC(=O)/C=C(\[O-])c1ccccc1.O=C(/C=C(\[O-])c1ccccc1)CCCCCCC(=O)/C=C(\[O-])c1ccccc1.O=C(/C=C(\[O-])c1ccccc1)CCCCCCC(=O)/C=C(\[O-])c1ccccc1.[Nd+3].[Nd+3] , what TGI is on record? > 50 µM

Any idea what TGI was measured for Nc1ncnc2c1nc(Cl)n2C1OC(CO)C(O)C1O (stereo not drawn) ? > 85.2 µM

# input molecule: CCCCCCCc1ccc(-c2nnc(N=Nc3ccc(OCCCCC)cc3)s2)s1 ; wanted: its TGI > 100 µM

For COC(=O)[C@H](Cc1cn(C)cn1)NC(=O)[C@@H](NC(=O)Nc1cc(C(F)(F)F)cc(C(F)(F)F)c1)C(C)C , what is its reported TGI? > 10 µM

What does the data say about its TGI? Entry: COC(=O)c1ccccc1C1CN=NC12Cc1c(C)ccc(C)c1C2=O (stereo not drawn) > 100 µM

Can you look up the measured TGI of c1cc2c(cc1[C@@H]1OC[C@@H]3[C@H]1CO[C@H]3c1ccc3c(c1)OCO3)OCO2 for me? > 100 µM

Which TGI value belongs to COc1cc2cc3c(c(O)c2c(O)c1-c1c(OC)cc2cc4c(c(O)c2c1O)C(=O)O[C@H](C)C4)C(=O)O[C@H](C)C3 ? > 100 µM

Suppose we examine the molecule Cc1ccc(NCCN(C)C)c2c(=O)c3cc(O)ccc3sc12 ; what TGI value has been reported? 15.2 µM

Quick one: TGI for N#CC(NC(=O)CCl)=C(Cl)Cl ? 6.56 µM

What does the data say about its TGI? Entry: CC(C)=CCC/C(C)=C/C=C/C(C)=C/C1C[C@@]2(C(O)O1)[C@H](CCCO)/C(=C(/C)C=O)CC[C@]2(C)O (stereo partly drawn) 40.9 µM

Give the measured TGI of CC1=C(CNO)C2=C(C)C3(CC3)[C@@](C)(O)C(=O)C2=C1 . 4.79 µM

Returns the measured TGI for the input molecule. Input: CC(=O)NN(c1ccccc1)C1CCN(c2ccccc2)N1C(C)=O (stereo not drawn) > 10 µM

Request the reported TGI associated with C/C(Nc1ccc(Cl)cc1)=C1/CCOC1=O > 100 µM
